Listed next: entries and their corresponding DF norm AVERAGE OR71a.
Assayed Target: Drosophila OR71a (Drosophila melanogaster, UniProt Q9VUK5)
Construct: expressed in transfected cells
Sequence (Q9VUK5 whole entry, one chain of several): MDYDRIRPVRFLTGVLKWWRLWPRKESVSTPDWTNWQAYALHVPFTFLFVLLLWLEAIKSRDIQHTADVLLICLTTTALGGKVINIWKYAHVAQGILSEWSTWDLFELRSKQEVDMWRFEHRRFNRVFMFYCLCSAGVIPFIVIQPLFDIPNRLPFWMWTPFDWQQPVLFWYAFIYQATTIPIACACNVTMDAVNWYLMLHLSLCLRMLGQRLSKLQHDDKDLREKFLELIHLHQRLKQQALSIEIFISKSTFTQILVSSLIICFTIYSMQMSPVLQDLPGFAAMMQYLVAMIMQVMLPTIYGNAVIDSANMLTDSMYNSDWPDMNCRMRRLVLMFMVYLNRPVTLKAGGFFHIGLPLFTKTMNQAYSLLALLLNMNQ
Procedure Summary: Calcium ion fluorescence (GCaMP6) assay, OR71a stable HEK293 cell line
Type: cell-based
Protocol Conditions: ligand concentration 1 (unit not given); threshold 0.05, below shown as 0
Experimental: These VUAA1 normalized ∆F values were used to compare the different receptors and ligands. The concentration-dependent effect of the reference ligands on their cognate cell lines was examined in more detail. Twelve different ligand concentrations were measured on each cell line in an overall 0.01 μM to 100 μM concentration range with 5 repetitions with three technical replicates each time. […]
Keep it simple and answer with nothing but the number.

Molecule: CCCCCOC(C)=O [pentyl acetate]
Endpoint: DF norm AVERAGE OR71a
Result Value: 0

Molecule: C=CCc1ccc(O)c(OC)c1 [eugenol]
Endpoint: DF norm AVERAGE OR71a
Result Value: 0

// next item, DF norm AVERAGE OR71a requested
Query: DF norm AVERAGE OR71a; subject: Cc1ccc(C(C)C)cc1 [p-cymene]
0

----------
Recorded measurements of DF norm AVERAGE OR47a, one per entry
Assayed Target: Drosophila OR47a (Drosophila melanogaster)
Construct: expressed in transfected cells
Sequence (P81921 1-385): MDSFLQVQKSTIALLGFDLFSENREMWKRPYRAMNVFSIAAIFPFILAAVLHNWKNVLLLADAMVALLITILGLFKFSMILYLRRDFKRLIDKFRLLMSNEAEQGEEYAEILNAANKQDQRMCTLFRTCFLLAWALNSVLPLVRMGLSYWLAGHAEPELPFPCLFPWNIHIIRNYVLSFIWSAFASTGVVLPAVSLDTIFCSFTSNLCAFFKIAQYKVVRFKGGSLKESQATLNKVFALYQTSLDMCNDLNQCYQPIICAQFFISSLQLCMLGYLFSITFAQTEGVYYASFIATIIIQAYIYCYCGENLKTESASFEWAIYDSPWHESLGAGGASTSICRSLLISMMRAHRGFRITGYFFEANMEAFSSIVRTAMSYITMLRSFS
Sequence (Q9VNB5 1-486 partner): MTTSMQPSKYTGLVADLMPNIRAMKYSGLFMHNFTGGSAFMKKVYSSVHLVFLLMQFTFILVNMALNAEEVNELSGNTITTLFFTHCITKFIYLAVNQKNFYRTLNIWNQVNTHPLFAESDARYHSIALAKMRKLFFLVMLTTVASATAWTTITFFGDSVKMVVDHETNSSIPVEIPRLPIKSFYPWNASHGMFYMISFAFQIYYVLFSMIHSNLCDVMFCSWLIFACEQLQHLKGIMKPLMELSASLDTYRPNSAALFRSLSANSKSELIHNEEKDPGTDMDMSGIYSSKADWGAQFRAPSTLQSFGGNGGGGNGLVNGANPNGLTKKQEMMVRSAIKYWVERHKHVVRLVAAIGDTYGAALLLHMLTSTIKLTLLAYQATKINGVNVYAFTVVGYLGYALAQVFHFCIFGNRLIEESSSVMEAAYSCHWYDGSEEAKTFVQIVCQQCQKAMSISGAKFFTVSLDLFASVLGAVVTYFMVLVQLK
Procedure Summary: Calcium ion fluorescence (GCaMP6) assay, OR47a stable HEK293 cell line
Assay type: cell-based
Protocol Conditions: ligand concentration 10 (unit not given); threshold 0.05, below shown as 0
Keep it simple and answer with nothing but the number.

Compound: OCCc1ccccc1 [phenethyl alcohol]
DF norm AVERAGE OR47a: 0.06438
//
Compound: O=Cc1ccccc1 [benzaldehyde]
DF norm AVERAGE OR47a: 0

Given CCCCCCCCC=O [nonanal] , state its recorded DF norm AVERAGE OR47a.
0

Query (compound): C=C1CCC2CC1C2(C)C (stereo not drawn) [beta-pinene] ; field requested: DF norm AVERAGE OR47a
0

What value of DF norm AVERAGE OR47a has been reported for the following compound? CCCCCCCCCC=O [decanal]
0

----------
Assayed Target: Drosophila OR98a (Drosophila melanogaster, UniProt Q9VAZ3)
Construct: expressed in transfected cells
Sequence (Q9VAZ3 whole entry, one chain of several): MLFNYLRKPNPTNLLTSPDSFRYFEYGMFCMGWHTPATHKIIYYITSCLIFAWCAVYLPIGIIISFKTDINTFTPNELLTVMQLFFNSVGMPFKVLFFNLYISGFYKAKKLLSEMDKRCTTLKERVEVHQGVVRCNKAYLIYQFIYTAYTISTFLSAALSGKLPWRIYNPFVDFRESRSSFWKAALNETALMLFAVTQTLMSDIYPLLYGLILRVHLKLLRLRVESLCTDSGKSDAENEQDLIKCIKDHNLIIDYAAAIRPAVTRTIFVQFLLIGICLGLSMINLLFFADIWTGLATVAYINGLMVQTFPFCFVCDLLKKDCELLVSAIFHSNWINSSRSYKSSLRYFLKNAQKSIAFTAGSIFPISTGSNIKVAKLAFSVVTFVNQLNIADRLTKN
Procedure Summary: Calcium ion fluorescence (GCaMP6) assay, OR98a stable HEK293 cell line
Type: cell-based
Protocol Conditions: VOC concentration 10 μM
Endpoint: OR98a response (VUAA1-normalized response)
Write no unit; give the number alone.

Compound: C=C(C)C1CCC2(C)OC2C1 (single isomer, unassigned; (+)) [(+)-limonene oxide]
Result Value: 0.00
//
Compound: C=C(C)[C@H]1CC=C(C)CC1 [limonene]
Result Value: 0.00
//
Compound: CC1=CCC[C@@]2(C)[C@@H]3CC[C@]12CC3(C)C [(−)-α-neoclovene]
Result Value: 0.00
//
Compound: C=C1[C@H]2CC[C@@H]3[C@H]2C(C)(C)CCC[C@]13C [(+)-longifolene]
Result Value: 0.13
//
Compound: CC(C)=CCC/C(C)=C/CC/C(C)=C/CO
Result Value: 0.07

OR98a response (VUAA1-normalized response) lookup needed for `CC/C=C\CCO` , thanks.
0.00

Param item = C=C(C)[C@H]1CC=C(C)CC1 [(R)-(+)-limonene] ; retrieve measured OR98a response (VUAA1-normalized response).
0.00

----------
Assayed Target: Drosophila OR85b (Drosophila melanogaster, UniProt Q9VHQ7)
Construct: expressed in transfected cells
Sequence (Q9VHQ7 whole entry, one chain of several): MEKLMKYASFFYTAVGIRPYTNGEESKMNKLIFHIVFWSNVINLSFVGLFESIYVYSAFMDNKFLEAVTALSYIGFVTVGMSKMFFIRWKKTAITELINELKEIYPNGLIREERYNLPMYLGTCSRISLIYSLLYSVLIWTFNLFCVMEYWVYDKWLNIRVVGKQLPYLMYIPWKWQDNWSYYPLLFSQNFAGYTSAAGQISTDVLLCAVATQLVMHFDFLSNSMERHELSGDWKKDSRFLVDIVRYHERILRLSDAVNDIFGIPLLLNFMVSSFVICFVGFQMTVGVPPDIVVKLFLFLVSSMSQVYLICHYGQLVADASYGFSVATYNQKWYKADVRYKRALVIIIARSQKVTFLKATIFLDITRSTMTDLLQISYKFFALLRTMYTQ
Procedure Summary: Calcium ion fluorescence (GCaMP6) assay, OR85b stable HEK293 cell line
Format: cell-based
Protocol Conditions: OR85b cell line; cc. 1 µM; VUAA1-normalized response, mean of biological replicates
Rule: Average response below 0.02 gives rule met, anything at or above gives rule not met.

Reference set, count: 3
Molecule: CCCCCCCCC(CO)CCCCCC (centres unmarked) [2-hexyl-1-decanol]
Class Name: rule not met
--
Molecule: CCCCCOC(C)=O [pentyl acetate]
Class Name: rule met
--
Molecule: CCCCCC(=O)CC [3-octanone]
Class Name: rule met

Continue with the next molecule.
Check if Average response falls below 0.02 for Cc1ccccc1C [o-xylene] .
rule not met

----------
Parameter activation at 100 µM: see the listing below.
Assayed Target: Drosophila OR49b (Drosophila melanogaster)
Construct: expressed in transfected cells
Sequence (Q9V6H2 1-375): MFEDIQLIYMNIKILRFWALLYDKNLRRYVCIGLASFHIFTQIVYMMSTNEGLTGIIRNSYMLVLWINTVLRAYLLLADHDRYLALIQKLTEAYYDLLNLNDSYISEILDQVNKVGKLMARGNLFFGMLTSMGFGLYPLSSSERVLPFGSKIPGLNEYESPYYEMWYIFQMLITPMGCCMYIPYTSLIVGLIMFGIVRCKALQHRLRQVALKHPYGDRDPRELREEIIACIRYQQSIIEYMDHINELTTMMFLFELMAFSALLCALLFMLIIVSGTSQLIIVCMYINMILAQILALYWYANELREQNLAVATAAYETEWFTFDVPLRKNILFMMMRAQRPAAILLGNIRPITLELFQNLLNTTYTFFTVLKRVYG
Sequence (Q9VNB5 1-486 partner): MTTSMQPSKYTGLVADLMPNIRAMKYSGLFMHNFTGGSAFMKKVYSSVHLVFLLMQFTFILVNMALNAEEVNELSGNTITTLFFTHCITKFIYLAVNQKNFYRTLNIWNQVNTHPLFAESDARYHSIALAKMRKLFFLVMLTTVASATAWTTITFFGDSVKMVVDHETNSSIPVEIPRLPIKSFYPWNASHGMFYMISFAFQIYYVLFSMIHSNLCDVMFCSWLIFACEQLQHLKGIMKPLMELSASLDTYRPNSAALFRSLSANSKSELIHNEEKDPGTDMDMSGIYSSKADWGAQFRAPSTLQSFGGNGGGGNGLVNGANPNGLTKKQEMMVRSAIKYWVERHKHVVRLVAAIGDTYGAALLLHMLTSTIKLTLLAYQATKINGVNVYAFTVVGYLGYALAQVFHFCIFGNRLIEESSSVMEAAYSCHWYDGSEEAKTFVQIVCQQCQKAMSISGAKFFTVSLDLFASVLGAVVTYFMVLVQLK
Procedure Summary: cell-based
Protocol Conditions: HEK293; VOC concentration 100 μM; read-out: OR49b response (VUAA1-normalized response)

Use the examples below as a reference point.
Compound: CC(=O)OCCC(C)C [isopentyl acetate]
Result Value: 15%
--
Compound: COc1cccc(OC)c1 [1,3-dimethoxy benzene]
Result Value: 0%
--
Compound: C=C1CC[C@H]2O[C@]2(C)CC[C@@H]2[C@@H]1CC2(C)C [(-)-caryophyllene oxide]
Result Value: 0%
--
Compound: CCCCC(C)O (stereo not drawn) [2-hexanol]
Result Value: 0%

Give its activation at 100 µM value. Item: CCCCCCCCCC=O [decanal]
9%

Please give the measured activation at 100 µM for this compound: C=CC(O)CCCCC (stereo not drawn) [1-octen-3-ol]
0%

----------
Assayed Target: Drosophila OR85b (Drosophila melanogaster)
Construct: expressed in transfected cells
Procedure Summary: Calcium ion fluorescence (GCaMP6) assay, OR85b stable HEK293 cell line
Format: cell-based
Protocol Conditions: concentration 100; normalized fluorescence change, values below 0.05 threshold given as 0
Endpoint: DF norm AVERAGE OR85b
The answer should be written as a number, with no unit following it.

# example entries with known answers
Compound: C=C1CC/C=C(\C)CC[C@@H]2[C@@H]1CC2(C)C [(-)-trans-caryophyllene]
DF norm AVERAGE OR85b: 0
--
Compound: C=C(C)C1CCC2(C)OC2C1 (single isomer, unassigned; (+)) [(+)-limonene oxide]
DF norm AVERAGE OR85b: 0
--
Compound: CCCCCCCO
DF norm AVERAGE OR85b: 0

Return reported DF norm AVERAGE OR85b; argument: C=CC(O)C/C=C\CC (stereo not drawn)
0

Please report the recorded DF norm AVERAGE OR85b for `Cc1cccc(O)c1` .
0

# input compound: C=C(C)[C@H]1CC=C(C)CC1 [(R)-(+)-limonene] ; wanted: its DF norm AVERAGE OR85b
0

Please look up its DF norm AVERAGE OR85b: `CCCCC(C)=O`
0

If you can, please state the reported DF norm AVERAGE OR85b value of `CCCCCC(=O)CC` .
0.08805

Using the record for `CCCCCO` , report its DF norm AVERAGE OR85b.
0

Reference source for all entries: paper PMC10709440
